Target: T1, CARD-11-CARD fused to the NF-kB activation domain (pCMV-CARD-11/AD) (mouse; human, UniProt Q04207 364-549)
T1 construct: range 364-550; Only the CARD domain of CARD-11 stood in the assay; also called CARD of CARD-11
T1 sequence: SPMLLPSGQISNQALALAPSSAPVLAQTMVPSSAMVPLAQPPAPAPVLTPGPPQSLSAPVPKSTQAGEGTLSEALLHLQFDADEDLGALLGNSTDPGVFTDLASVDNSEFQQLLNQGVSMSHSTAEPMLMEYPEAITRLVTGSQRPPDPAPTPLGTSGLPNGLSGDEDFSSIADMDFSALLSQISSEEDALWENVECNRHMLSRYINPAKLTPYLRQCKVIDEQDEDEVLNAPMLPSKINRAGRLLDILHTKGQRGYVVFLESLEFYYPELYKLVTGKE
Assay: mammalian two-hybrid, 293T cells

Binder | binding result
RICK CARD domain (residues 417-540) in pCMV-BD (other, UniProt P04386 1-147, looked up, range 1-147;range 417-540; Member of the two-hybrid CARD panel) MKLLSSIEQACDICRLKKLKCSKEKPKCAKCLKNNWECRYSPKTKRSPLTRAHLTEVESRLERLEQLFLLIFPREDLDMILKMDSLQDIKALLTGLFVQDNVNKDAVTDRLASVETDMPLTLRQHRISATSSSEESSNKGQRQLTVSAIINPLSTAGNSERLQPGIAQQWIQSKREDIVNQMTEACLNQSLDALLSRDLIMKEDYELVSTKPTRTSKVRQLLDTTDIQGEEFAKVIVQKLKDNKQMGLQPYPEILVVSRSPSLNLLQNKSM | no binding
caspase-12 CARD domain (residues 1-121) in pCMV-BD (other, UniProt P04386 1-147, looked up, range 1-147;range 1-121; Member of the two-hybrid CARD panel) MKLLSSIEQACDICRLKKLKCSKEKPKCAKCLKNNWECRYSPKTKRSPLTRAHLTEVESRLERLEQLFLLIFPREDLDMILKMDSLQDIKALLTGLFVQDNVNKDAVTDRLASVETDMPLTLRQHRISATSSSEESSNKGQRQLTVSMAARRTHERDPIYKIKGLAKDMLDGVFDDLVEKNVLNGDELLKIGESASFILNKAENLVENFLEKTDMAGKIFAGHIANSQEQLSLQFSNDEDDGPQKICTPSSPSESKRKVEDDEMEVNA | no binding
Apaf-1 CARD domain (residues 1-108) in pCMV-BD (other, UniProt P04386 1-147, looked up, range 1-147;range 1-108; Member of the two-hybrid CARD panel) MKLLSSIEQACDICRLKKLKCSKEKPKCAKCLKNNWECRYSPKTKRSPLTRAHLTEVESRLERLEQLFLLIFPREDLDMILKMDSLQDIKALLTGLFVQDNVNKDAVTDRLASVETDMPLTLRQHRISATSSSEESSNKGQRQLTVSMDAKARNCLLQHREALEKDIKTSYIMDHMISDGFLTISEEEKVRNEPTQQQRAAMLIKMILKKDNDSYVSFYNALLHEGYKDLAALLHDGIPVVSSSSGKDSVSGITS | no binding

Attribution: patent US20030113787A1
